- Tested System: HLA-B*27:05
- Procedure Details: IEDB peptide-MHC binding, purified MHC/direct/fluorescence; filed as Kd, often an IC50 or EC50 that approximates it; bounds were set here for any values at or beyond the usual limits of such assays
- Condition Summary: source organism: Mammarenavirus lassaense
pKd: −log10 of the molar value.
Property Measured: pKd

Looking up FVRSSPANF , I see its pKd listed as ≤ 4.70

###

- Tested System: HLA-B*58:01
- Procedure Details: IEDB peptide-MHC binding, purified MHC/competitive/fluorescence; filed as Kd, often an IC50 or EC50 that approximates it; bounds were set here for any values at or beyond the usual limits of such assays
- Condition Summary: source organism: Escherichia coli B171
Property Measured: Kd (nM)
# number only, unit nM dropped from output

Per the record, VSALRLFNY has Kd of 1020
